assaySummary: The drug is tested on Blautia hansenii strain: DSM20583 for biotransformation. The drug concentrations were measured before and after a 12-h incubation by liquid-chromatography-coupled mass spectrometry (LC–MS)
cond: 2 µM
measuredParameter: Bacterial Biotransformation

Examples with answers:
NS(=O)(=O)c1cc2c(cc1Cl)N=C(CSCc1ccccc1)NS2(=O)=O [BENZTHIAZIDE]; Compound metabolized
CCOC(=O)[C@H](CCc1ccccc1)N[C@H]1CCc2ccccc2N(CC(=O)O)C1=O; Compound NOT metabolized
Cc1ccc(NC(=O)c2ccc(CN3CCN(C)CC3)cc2)cc1Nc1nccc(-c2cccnc2)n1; Compound NOT metabolized
COc1ccnc(C[S+]([O-])c2nc3ccc(OC(F)F)cc3[nH]2)c1OC (stereo not given); Compound metabolized
CN1CCN(C2=Nc3cc(Cl)ccc3Nc3ccccc32)CC1; Compound NOT metabolized
COc1cc2c(c(OC)c1OC)-c1ccc(OC)c(=O)cc1[C@@H](NC(C)=O)CC2; Compound metabolized
CCOc1ccc2nc(S(N)(=O)=O)sc2c1 [ETHOXZOLAMIDE]; Compound metabolized
Cc1ccc(S(=O)(=O)NC(=O)NN2CC3CCCC3C2)cc1 (stereo not given) [GLICLAZIDE]; Compound NOT metabolized

// query Which measured Bacterial Biotransformation value corresponds to Br.COc1ccc2c(c1)[C@]13CCCC[C@@H]1[C@H](C2)N(C)CC3.O [DEXTROMETHORPHAN HYDROBROMIDE] ?
// result Compound NOT metabolized

// query Record request: Bacterial Biotransformation value, item CCCCc1nc(Cl)c(CO)n1Cc1ccc(-c2ccccc2-c2nn[nH]n2)cc1
// result Compound NOT metabolized

====

cond: bacteroides fragilis, 12 h, 2 µM
Description: The drug is tested on Bacteroides fragilis strain: 3397 (T10) for biotransformation. The drug concentrations were measured before and after a 12-h incubation by liquid-chromatography-coupled mass spectrometry (LC–MS)
measuredParameter: Bacterial Biotransformation

Consider the reported Bacterial Biotransformation for these compounds:
COC(=O)[C@H](c1ccccc1Cl)N1CCc2sccc2C1.O=S(=O)(O)O [CLOPIDOGREL BISULFATE]; Compound metabolized
C=CC[C@@H]1/C=C(\C)C[C@H](C)C[C@H](OC)[C@H]2O[C@@](O)(C(=O)C(=O)N3CCCC[C@H]3C(=O)O[C@H](/C(C)=C/[C@@H]3CC[C@@H](O)[C@H](OC)C3)[C@H](C)[C@@H](O)CC1=O)[C@H](C)C[C@@H]2OC.O; Compound NOT metabolized
CC(=O)O[C@H]1C(=O)[C@@]2(C)[C@H]([C@H](OC(=O)c3ccccc3)[C@]3(O)C[C@H](OC(=O)[C@H](O)[C@@H](NC(=O)c4ccccc4)c4ccccc4)C(C)=C1C3(C)C)[C@]1(OC(C)=O)CO[C@@H]1C[C@@H]2O; Compound NOT metabolized
CC(=O)O[C@]1(C(C)=O)CC[C@H]2[C@@H]3C=C(C)C4=CC(=O)CC[C@]4(C)[C@H]3CC[C@@]21C [MEGESTROL ACETATE]; Compound metabolized
CCN(CC)CCNC(=O)c1cc(Cl)c(N)cc1OC [METOCLOPRAMIDE]; Compound NOT metabolized

// query So what does the record say about Bacterial Biotransformation for c1ccc2[nH]c(-c3cscn3)nc2c1 ?
// result Compound NOT metabolized

// query Bacterial Biotransformation for CC(N)C12CC3CC(CC(C3)C1)C2 (stereo not given) ?
// result Compound NOT metabolized

// query Give its Bacterial Biotransformation value. Item: CCN(CC)CCOC(=O)C(Cc1cccc2ccccc12)CC1CCCO1.O=C(O)C(=O)O (stereo not given) [NAFRONYL OXALATE]
// result Compound NOT metabolized
